// values below are reported protein stability index
tested on: Saccharomyces cerevisiae; experiment: protein stability index of tFT-peptide fusion (C-terminal peptide) (PSI (0-1 scale)); higher = more stable (slower turnover); conditions: genetic background: wild type; temperature: 30 C
# answer = number (no unit)

# biopolymer.sequence, protein stability index
measured = [
    ("QYKNKLAKNVVL [ARB1 C-terminal 12 aa]", 0.68),
    ("AAVKLSQAKSKL [FOX2 C-terminal 12 aa]", 0.752),
    ("KDKKKDKSNSSI [HMO1 C-terminal 12 aa]", 0.691),
    ("FASGKPIKKVKN [DYS1 C-terminal 12 aa]", 0.706),
    ("QVVAIIKKAYEY [ADH4 C-terminal 12 aa]", 0.679),
]

Returns the measured protein stability index for the input sequence. Input: ELTSSDDCKDFI [YDR124W C-terminal 12 aa]
0.652

Returns the measured protein stability index for the input sequence. Input: KDGDVVYDNGFM [CHS7 C-terminal 12 aa]
0.692
